Biological target: CXCR3 (Homo sapiens)
Construct: host or cells: CHO-K1 (cAMP Hunter CHOK1 CXCR3 Gi cell line)
Sequence (P49682 1-368): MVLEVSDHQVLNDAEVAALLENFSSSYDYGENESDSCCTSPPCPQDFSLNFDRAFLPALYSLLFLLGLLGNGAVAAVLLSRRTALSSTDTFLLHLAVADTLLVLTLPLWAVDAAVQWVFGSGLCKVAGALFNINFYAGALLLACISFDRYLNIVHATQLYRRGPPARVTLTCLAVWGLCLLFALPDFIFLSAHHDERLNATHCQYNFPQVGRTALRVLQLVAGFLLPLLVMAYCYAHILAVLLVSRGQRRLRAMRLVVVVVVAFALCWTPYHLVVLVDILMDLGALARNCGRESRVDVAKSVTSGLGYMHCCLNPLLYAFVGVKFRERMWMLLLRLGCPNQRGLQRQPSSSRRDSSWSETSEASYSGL
Test: CXCR3 cAMP agonist assay (cAMP Hunter CHOK1 CXCR3 Gi cell line, forskolin-stimulated, HitHunter cAMP detection)
Type: cell-based
Details: cAMP Hunter CHOK1 CXCR3 Gi cells, 20 μM forskolin, 30 minutes; read-out: Activity (CXCR3 cAMP agonist assay compound EC50)
pEC50: −log10 of the molar value.
READOUT: pEC50

Asked: Look at this molecule and give its reported pEC50. Cc1cc(NC(=O)[C@H](CCCN)NC(=O)[C@@H]2Cc3ccccc3CN2C(=O)CCC(=O)c2ccccc2)ccc1Cl [Compound 4-3]
Given back: > 7.30

Asked: Look at this molecule and give its reported pEC50. CN(C)CCN(C)C(=O)CCC(=O)N1Cc2ccccc2C[C@H]1C(=O)N[C@@H](CCN)C(=O)Nc1ccc(Cl)c(Cl)c1F [Compound 15-28]
Given back: < 6.30

Asked: Look at this molecule and give its reported pEC50. NCC[C@H](NC(=O)[C@@H]1Cc2ccccc2CN1C(=O)CCC(=O)c1ccccc1)C(=O)Nc1ccc2ncccc2c1 [Compound 2-43]
Given back: 6.60 to 7.30

Asked: Look at this molecule and give its reported pEC50. Cc1cc(NC(=O)[C@H](CCN)NC(=O)[C@@H]2Cc3ccccc3CN2C(=O)CCC(=O)NCc2ccccc2)ccc1Cl [Compound 12-18]
Given back: < 6.30

Asked: Look at this molecule and give its reported pEC50. NCC[C@H](NC(=O)[C@@H]1Cc2ccccc2CN1C(=O)CCC(=O)c1ccccc1)C(=O)Nc1cc2c(cc1F)CCC2 [Compound 2-78]
Given back: > 7.30

Asked: Look at this molecule and give its reported pEC50. Cc1cc(NC(=O)[C@H](CCN)NC(=O)[C@@H]2Cc3ccccc3CN2C(=O)CCC(=O)N2CCN(C)[C@H](C)C2)ccc1Cl [Compound 12-35]
Given back: > 7.30

Asked: Look at this molecule and give its reported pEC50. Cc1cc(NC(=O)[C@H](CCN)NC(=O)[C@@H]2Cc3ccccc3CN2C(=O)CCC(=O)N2CCC(O)CC2)ccc1Cl [Compound 12-6]
Given back: 6.60 to 7.30

// data source = patent US11040954B1
